# test.system: human PDGFRβ (Homo sapiens, UniProt P09619)
# Construct: expressed in transfected cells
# Sequence (P09619 33-1106): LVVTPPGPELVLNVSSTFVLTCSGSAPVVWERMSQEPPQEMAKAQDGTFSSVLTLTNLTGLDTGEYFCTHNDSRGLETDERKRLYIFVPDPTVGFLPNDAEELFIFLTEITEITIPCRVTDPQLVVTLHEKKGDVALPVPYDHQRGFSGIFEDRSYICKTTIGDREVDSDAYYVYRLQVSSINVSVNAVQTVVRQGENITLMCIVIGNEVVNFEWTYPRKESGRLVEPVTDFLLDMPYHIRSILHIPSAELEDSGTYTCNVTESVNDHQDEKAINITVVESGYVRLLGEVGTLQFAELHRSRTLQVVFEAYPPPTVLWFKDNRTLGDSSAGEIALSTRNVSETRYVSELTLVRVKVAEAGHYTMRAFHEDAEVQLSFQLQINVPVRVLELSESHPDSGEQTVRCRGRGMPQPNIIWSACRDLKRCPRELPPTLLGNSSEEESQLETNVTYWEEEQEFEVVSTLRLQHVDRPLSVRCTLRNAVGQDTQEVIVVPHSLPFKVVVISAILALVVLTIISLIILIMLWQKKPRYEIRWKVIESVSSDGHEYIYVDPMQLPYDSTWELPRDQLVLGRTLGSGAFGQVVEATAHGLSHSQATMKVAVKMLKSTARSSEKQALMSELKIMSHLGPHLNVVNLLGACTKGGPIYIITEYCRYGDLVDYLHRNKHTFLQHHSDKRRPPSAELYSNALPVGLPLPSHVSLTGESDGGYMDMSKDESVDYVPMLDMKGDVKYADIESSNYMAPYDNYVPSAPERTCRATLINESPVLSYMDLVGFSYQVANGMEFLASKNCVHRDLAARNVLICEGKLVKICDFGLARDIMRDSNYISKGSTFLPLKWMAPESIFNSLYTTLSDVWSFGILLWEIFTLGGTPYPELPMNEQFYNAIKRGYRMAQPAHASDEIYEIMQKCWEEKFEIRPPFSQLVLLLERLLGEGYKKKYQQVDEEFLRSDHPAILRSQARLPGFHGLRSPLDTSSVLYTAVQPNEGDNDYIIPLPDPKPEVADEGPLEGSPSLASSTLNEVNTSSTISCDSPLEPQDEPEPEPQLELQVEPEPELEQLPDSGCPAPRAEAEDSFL
# test.name: PDGF dependent cell proliferation (MTS)
# Format: cell-based
# protocol.conditions: PDGFRβ NIH-3T3 cells, PDGF BB (50ng/ml), 72 hours, serum-free medium; read-out: Gl50 nM (PDGF ligand-dependent cell proliferation)
pIC50: −log10 of the molar value.
So basically: pIC50 at 7 or higher? That is Condition met. Lower than 7? That is Condition not met.

| cpd.smiles | label |
| --- | --- |
| COc1ccc(NC(=O)c2cccc3cc(Oc4ncnc5cc(OC)c(OC)cc45)ccc23)c(N)c1 | Condition met |
| COc1cc2ncnc(Oc3ccc4c(C(=O)Nc5ccc(F)cc5N)cccc4c3)c2cc1OC | Condition met |
| Nc1ccccc1NC(=O)c1cccc2cc(Oc3ccnc4ccccc34)ccc12 | Condition met |
| COc1cc2ncnc(Oc3ccc4c(C(=O)Nc5ccc(C(F)(F)F)cc5N)cccc4c3)c2cc1OC | Condition not met |
| COc1cc2nccc(Oc3ccc4c(C(=O)Nc5ccccc5N)cccc4c3)c2cc1OC | Condition met |
| Nc1ccccc1NC(=O)c1cccc2cc(Oc3ccnc4cc(Cl)ccc34)ccc12 | Condition not met |
| COc1ccc2c(Oc3ccc4c(C(=O)NCc5ccc(C(=O)Nc6ccccc6N)cc5)cccc4c3)ccnc2c1 | Condition not met |
| COc1cc2nccc(Oc3ccc4c(C(=O)Nc5ccc(F)cc5N)cccc4c3)c2cc1OC | Condition met |
| COc1cc2ncnc(Oc3ccc4c(C(=O)Nc5ccc(C)cc5N)cccc4c3)c2cc1OC | Condition met |

These entries and their values trace back to patent EP2439195B1.
